# methodDescription: qHTS assay to identify small molecule antagonists of the estrogen receptor alpha (ER-alpha) signaling pathway using the BG1 cell line - cell viability counter screen (AID 743081);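 further: compound given together with 17beta-estradiol as the ER stimulus; nearly all actives have a fitted effect of over 45% in size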
# condition: BG1Luc4E2 viability, CellTiter-Fluor, 22 h; series mostly up to 70.3 µM
Inconclusive results are not listed. Calls of active or inactive are those of the source. The call rests on the fitted dose curve; in most records, active means well fitted cell-killing curve with a large enough effect in the repeat runs; inconclusive means weak or mixed curves, or effect the other way; inactive means flat fitted curve, though single readings scatter.
Possible outcomes: TRUE = active, FALSE = inactive

[[record]]
compound = "O=C1c2cccc(O)c2C(=O)c2c(O)cc(CO)cc21"
categorylabel = "FALSE"

[[record]]
compound = "CCCCOC(O)CC (stereo unspecified)"
categorylabel = "FALSE"

[[record]]
compound = "CN(C)CCCNCCCN"
categorylabel = "FALSE"

[[record]]
compound = "CCOC(=O)C1=NN(c2ccccc2)C(=O)C1"
categorylabel = "FALSE"

[[record]]
compound = "COc1cc(C(C)(C)C)c(O)c(C(C)(C)C)c1"
categorylabel = "FALSE"

[[record]]
compound = "O=C(O)Cc1cc(I)c(Oc2ccc(O)c(I)c2)c(I)c1"
categorylabel = "FALSE"

[[record]]
compound = "Cc1cc(C)c(S(=O)(=O)O)cc1N=Nc1cc(S(=O)(=O)O)c2ccccc2c1O"
categorylabel = "TRUE"

[[record]]
compound = "Nc1nc(N)c(-c2ccccc2)s1"
categorylabel = "FALSE"

[[record]]
compound = "O=C(c1ccc(O)cc1)c1ccc(O)cc1"
categorylabel = "FALSE"

[[record]]
compound = "OCCC1CCCCN1 (stereo unspecified)"
categorylabel = "FALSE"

[[record]]
compound = "CC(=O)[C@@]1(O)CC[C@H]2[C@@H]3C[C@H](C)C4=CC(=O)CC[C@]4(C)[C@H]3CC[C@@]21C"
categorylabel = "FALSE"

[[record]]
compound = "C=CC[N+]1([C@H]2C[C@H]3[C@@H]4CC[C@H]5C[C@H](OC(C)=O)[C@@H](N6CCCCC6)C[C@]5(C)[C@H]4CC[C@]3(C)[C@H]2OC(=O)CC)CCCCC1"
categorylabel = "FALSE"

[[record]]
compound = "Nc1cnn([C@@H]2O[C@H](CO)[C@@H](O)[C@H]2O)c(=O)n1"
categorylabel = "FALSE"

[[record]]
compound = "CC(C)c1ccccc1C(C)C"
categorylabel = "FALSE"

[[record]]
compound = "CN1CCC(=C2c3ccccc3C=Cc3ccccc32)CC1"
categorylabel = "FALSE"

[[record]]
compound = "CC1=CC(=O)/C(=C(/C)O)C(=O)O1"
categorylabel = "FALSE"

[[record]]
compound = "CN1CCC(=C2c3ccccc3CCc3sccc32)CC1"
categorylabel = "FALSE"

[[record]]
compound = "CCCCCCCCC(CO)CCCCCC (stereo unspecified)"
categorylabel = "FALSE"

[[record]]
compound = "O=c1c2ccccc2nnn1CCl"
categorylabel = "FALSE"

[[record]]
compound = "OCC1CC2CC1C1CCC(CO)C21 (stereo unspecified)"
categorylabel = "FALSE"

[[record]]
compound = "Cc1cc(O)ccc1N"
categorylabel = "FALSE"

[[record]]
compound = "NCCCOCCOCCOCCCN"
categorylabel = "FALSE"

[[record]]
compound = "CCCCCCCCCC=O"
categorylabel = "FALSE"

[[record]]
compound = "CCC(C)N(C)C(=O)c1cc2ccccc2c(-c2ccccc2Cl)n1 (stereo unspecified)"
categorylabel = "FALSE"

[[record]]
compound = "CCOC(=S)SSC(=S)OCC"
categorylabel = "FALSE"

[[record]]
compound = "CC(CN)CCCN (stereo unspecified)"
categorylabel = "FALSE"

[[record]]
compound = "C=C(C)C(=O)OC(C)C"
categorylabel = "FALSE"

[[record]]
compound = "COCCO"
categorylabel = "FALSE"

[[record]]
compound = "CC/C(=C\\C(=N/O)C(N)=O)C(C)[N+](=O)[O-] (stereo unspecified)"
categorylabel = "FALSE"

[[record]]
compound = "CCCCOC(=O)/C=C\\C(=O)OCCCC"
categorylabel = "FALSE"

[[record]]
compound = "O=C(CC(=O)c1ccccc1)c1ccccc1"
categorylabel = "FALSE"

[[record]]
compound = "O=C(c1ccccc1)c1ccc2n1CCC2C(=O)O (stereo unspecified)"
categorylabel = "FALSE"

[[record]]
compound = "O=C(/C=C/c1ccc(O)c(O)c1)O[C@@H]1C[C@](O)(C(=O)O)C[C@@H](O)[C@H]1O"
categorylabel = "FALSE"

[[record]]
compound = "Oc1ccc(O)c2c(O)cccc12"
categorylabel = "FALSE"

[[record]]
compound = "CCCCCOC(=O)COc1cc(N2C(=O)C3=C(CCCC3)C2=O)c(F)cc1Cl"
categorylabel = "FALSE"

[[record]]
compound = "CC(Cc1cccc(C(F)(F)F)c1)NCCOC(=O)c1ccccc1 (stereo unspecified)"
categorylabel = "FALSE"

[[record]]
compound = "CC[C@]12CCCN3CCc4c(n(c5ccccc45)C(=O)C1)[C@@H]32"
categorylabel = "FALSE"

[[record]]
compound = "CN1CCN(C2=Nc3cc(Cl)ccc3Nc3ccccc32)CC1"
categorylabel = "FALSE"

[[record]]
compound = "O=CNc1ccccc1"
categorylabel = "FALSE"

[[record]]
compound = "CC(=O)c1c(C)c([N+](=O)[O-])c(C(C)(C)C)c([N+](=O)[O-])c1C"
categorylabel = "FALSE"

[[record]]
compound = "O=[N+]([O-])c1cccc(Cl)c1Cl"
categorylabel = "FALSE"


The measurements presented in this section are drawn from PubChem BioAssay (Tox21).
